Consider the following variants; for each one, report its scaled log2 fold change.
B1: library; numbered along this chain (parent)
chain: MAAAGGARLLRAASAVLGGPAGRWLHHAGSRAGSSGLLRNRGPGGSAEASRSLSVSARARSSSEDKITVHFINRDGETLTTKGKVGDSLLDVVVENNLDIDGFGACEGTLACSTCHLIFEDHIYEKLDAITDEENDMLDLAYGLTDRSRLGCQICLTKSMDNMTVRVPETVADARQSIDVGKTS

- Variants of: B1
- Assay Notes: scaled log2 fold change in cell abundance, elesclomol vs control (0 = silent mean, 1 = nonsense mean) (scaled log2 ratio); higher = higher viability under elesclomol (loss of FDX1 cuproptosis function);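 also: variant abundance is its share of total variant reads in each endpoint sample, from next-generation sequencing of the integrated ORF PCR-amplified out of genomic DNA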
- Assay Setup: with HEK293T FDX1 KO; elesclomol 40 nM; glucose 10 mM; 11 days
Output spec: single numeric token, no unit.

Exam item: Requested field: scaled log2 fold change. Item: M163Y
Marked response: -0.538

Exam item: Item under review: E133H . Reported scaled log2 fold change?
Marked response: -0.764

Exam item: Quick check: scaled log2 fold change of L117Y ?
Marked response: 1.02

Exam item: Could you share which scaled log2 fold change value was measured for T157I ?
Marked response: -0.784

Exam item: // returns reported scaled log2 fold change for input R147G
Marked response: 0.00185

Exam item: What scaled log2 fold change value was documented for this variant, I130H ?
Marked response: 0.239

Exam item: Entry G76P has what scaled log2 fold change?
Marked response: 0.000649

Exam item: Please give the measured scaled log2 fold change for this variant: A28S
Marked response: -0.13

Exam item: Fill in: scaled log2 fold change of L17Q is ___
Marked response: -0.517

Exam item: Find the recorded scaled log2 fold change belonging to G181Q and report it.
Marked response: -0.21

Exam item: Name the recorded scaled log2 fold change for G44D .
Marked response: -0.461

Exam item: Quick check: scaled log2 fold change of A13K ?
Marked response: -0.0857

Exam item: What does the data say about its scaled log2 fold change? Entry: L89G
Marked response: 0.301

Exam item: Recorded scaled log2 fold change of D101L , please.
Marked response: -0.161

Exam item: Could you share which scaled log2 fold change value was measured for T114F ?
Marked response: 0.235

Exam item: Can you look up the measured scaled log2 fold change of G108F for me?
Marked response: 0.938

Exam item: Please give the measured scaled log2 fold change for this variant: C112S
Marked response: 0.991

Exam item: I would be grateful if you could share the reported scaled log2 fold change for G45K .
Marked response: -0.713

Exam item: Query: scaled log2 fold change; subject: G83Q
Marked response: 0.716

Exam item: Can you share its scaled log2 fold change? I mean this variant: V92N
Marked response: 0.904

Exam item: Suppose we examine the variant E169D ; what scaled log2 fold change value has been reported?
Marked response: 1.13

Exam item: So what's the measured scaled log2 fold change for this one? A105I
Marked response: -0.181

Exam item: Requested read-out: scaled log2 fold change. Entry: R74L
Marked response: -0.577

Exam item: Fill in: scaled log2 fold change of D161R is ___
Marked response: 0.406

Exam item: Query (variant): A141H ; field requested: scaled log2 fold change
Marked response: -0.527

Exam item: Any idea what scaled log2 fold change was measured for G143V ?
Marked response: -0.395

Exam item: Can you share its scaled log2 fold change? I mean this variant: A13L
Marked response: 0.56

Exam item: I would be grateful if you could share the reported scaled log2 fold change for I154C .
Marked response: 0.0571

Exam item: Would you mind telling me what scaled log2 fold change value was observed for E107P ?
Marked response: 0.951

Exam item: For the variant shown here, N135L , give the reported scaled log2 fold change.
Marked response: 0.661

Exam item: Given C106K , state its recorded scaled log2 fold change.
Marked response: 1.38

Exam item: // query scaled log2 fold change value for entry I67C
Marked response: -0.121

Exam item: What value of scaled log2 fold change has been reported for the following variant? I130K
Marked response: 0.0187

Exam item: For the variant shown here, T131W , give the reported scaled log2 fold change.
Marked response: -0.135

Exam item: Fill blank: measured scaled log2 fold change of the variant L127Y is ____.
Marked response: -0.426

Exam item: Item under review: A28R . Reported scaled log2 fold change?
Marked response: 2.14

Exam item: # input variant: V171G ; wanted: its scaled log2 fold change
Marked response: 0.349

Exam item: Quick one: scaled log2 fold change for I100A ?
Marked response: -0.8

Exam item: What value of measured scaled log2 fold change is listed for T164R ?
Marked response: -0.0374

Exam item: Need scaled log2 fold change, item S63R
Marked response: -0.598

Exam item: GET /values?readout=scaled log2 fold change&item= G86D
Marked response: -0.689

Exam item: Suppose we examine the variant V94I ; what scaled log2 fold change value has been reported?
Marked response: 0.00216

Exam item: Which scaled log2 fold change value belongs to P43W ?
Marked response: 0.313

Exam item: Given the entry D91R , report its measured scaled log2 fold change.
Marked response: -0.752

Exam item: Would you kindly share the measured scaled log2 fold change for L37F ?
Marked response: 0.00175

Exam item: Returns the measured scaled log2 fold change for the input variant. Input: T164A
Marked response: 0.0905

Exam item: Dear colleague, I am looking for the recorded scaled log2 fold change of the following variant: L17F
Marked response: 0.252

Exam item: Data request, read-out scaled log2 fold change, for L37I
Marked response: 1.2

Exam item: Consider the variant shown here: G29H What is its recorded scaled log2 fold change?
Marked response: -0.53

Exam item: Which scaled log2 fold change value is on record for C155R ?
Marked response: -1.26

Exam item: // lookup scaled log2 fold change for G151H
Marked response: 1.31

Exam item: Bench note: what scaled log2 fold change did V55K show?
Marked response: -0.443

Exam item: // scaled log2 fold change lookup, key: Q153H
Marked response: -0.0151

Exam item: Which scaled log2 fold change value belongs to Q153C ?
Marked response: -0.668

Exam item: Which scaled log2 fold change reading was recorded for the variant A32C ?
Marked response: -1.08

Exam item: # query: scaled log2 fold change of entry I100D
Marked response: -0.663

Exam item: Please report the recorded scaled log2 fold change for S88K .
Marked response: -0.315

Exam item: Which scaled log2 fold change value belongs to A129E ?
Marked response: -0.333

Exam item: Entry under review: K84P . Reported scaled log2 fold change?
Marked response: 1.21

Exam item: Report scaled log2 fold change for R11M please.
Marked response: 0.88

Exam item: Item under review: P168Q . Reported scaled log2 fold change?
Marked response: 0.667

Exam item: # lookup: scaled log2 fold change of H70D
Marked response: 1.31

Exam item: So what's the measured scaled log2 fold change for this one? D179Q
Marked response: -0.984

Exam item: If you can, please state the reported scaled log2 fold change value of A141N .
Marked response: 0.596

Exam item: Which measured scaled log2 fold change value corresponds to D146C ?
Marked response: 0.758

Exam item: scaled log2 fold change lookup needed for I72K , thanks.
Marked response: -0.273

Exam item: Sample D121A — what was its scaled log2 fold change?
Marked response: 0.0802

Exam item: For the variant shown here, A111F , give the reported scaled log2 fold change.
Marked response: 0.414

Exam item: Could you share which scaled log2 fold change value was measured for E64Y ?
Marked response: -0.0105

Exam item: Sample N97H — what was its scaled log2 fold change?
Marked response: -0.619

Exam item: Entry L110G has what scaled log2 fold change?
Marked response: -0.656

Exam item: What measured scaled log2 fold change goes with A111K ?
Marked response: 0.541

Exam item: Given the entry A141W , report its measured scaled log2 fold change.
Marked response: -0.209

Exam item: Given the entry G143N , report its measured scaled log2 fold change.
Marked response: 0.0112

Exam item: Which scaled log2 fold change value belongs to Y124T ?
Marked response: -0.214

Exam item: What value of measured scaled log2 fold change is listed for A2P ?
Marked response: 0.0189

Exam item: Bench note: what scaled log2 fold change did L150W show?
Marked response: 1.11

Exam item: Entry G6C has what scaled log2 fold change?
Marked response: 0.86

Exam item: Record request: scaled log2 fold change value, item N97W
Marked response: -0.218

Exam item: What does the data say about its scaled log2 fold change? Entry: D91W
Marked response: -0.265

Exam item: Data request, read-out scaled log2 fold change, for G5P
Marked response: -0.46

Exam item: Would you kindly share the measured scaled log2 fold change for I67S ?
Marked response: 0.253

Exam item: Bench note: what scaled log2 fold change did Y142V show?
Marked response: -0.606

Exam item: What measured scaled log2 fold change goes with G45S ?
Marked response: -0.567

Exam item: Any idea what its scaled log2 fold change is? The variant is M137I
Marked response: 0.499

Exam item: Query: scaled log2 fold change; subject: A141G
Marked response: 0.016

Exam item: scaled log2 fold change lookup needed for R41S , thanks.
Marked response: 0.473

Exam item: Which scaled log2 fold change is reported for this variant? L117G
Marked response: 0.224

Exam item: Given L53R , state its recorded scaled log2 fold change.
Marked response: -0.455

Exam item: Fill blank: measured scaled log2 fold change of the variant C112Y is ____.
Marked response: 1.3

Exam item: What value of scaled log2 fold change has been reported for the following variant? D75A
Marked response: 0.113
